molecular target: T1, human nerve growth factor (human, UniProt P01138 122-241); assay: BIAcore SPR screen, Fab over immobilised human NGF; KD calculated from koff with kon 4e4 M-1s-1
T1 construct: Immobilised on CM5 chips for BIAcore, soluble in neuron survival assays; also called human NGF; hNGF
T1 sequence (P01138 122-241 limits assumed): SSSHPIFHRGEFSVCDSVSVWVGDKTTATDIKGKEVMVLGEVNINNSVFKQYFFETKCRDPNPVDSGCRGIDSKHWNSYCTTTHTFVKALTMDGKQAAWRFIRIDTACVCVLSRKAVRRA
pKd: −log10 of the molar value.
Readings of pKd for the listed binders
attribute measured: pKd

# binder, assay result
rows = [
    ("light chain library clone L81 (Fab, V domains shown, See note of m8) VH: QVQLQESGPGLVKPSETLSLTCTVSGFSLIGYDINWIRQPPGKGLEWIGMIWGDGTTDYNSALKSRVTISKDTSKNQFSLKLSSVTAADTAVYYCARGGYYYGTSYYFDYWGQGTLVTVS VL: DIQMTQSPSSLSASVGDRVTITCRAFQAISNQLNWYQQKPGKAPKLLIYYISRFHTGVPSRFSGSGSGTDFTFTISSLQPEDIATYYCQQSKTLPYTFGQGTKLEIKR", 7.74),
    ("heavy chain library clone H28 (Fab, V domains shown, See note of m8) VH: QVQLQESGPGLVKPSETLSLTCTVSGFSLIGYDSTWIRQPPGKGLEWIGSIWGDGTTDYNSALKSRVTISKDTSKNQFSLKLSSVTAADTAVYYCARGGYYYGTSYYFDYWGQGTLVTVS VL: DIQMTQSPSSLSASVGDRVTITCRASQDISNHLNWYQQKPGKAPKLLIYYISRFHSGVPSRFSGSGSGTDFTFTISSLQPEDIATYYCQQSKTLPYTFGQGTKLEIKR", 7.73),
]
